- studyTarget: T1, recombinant domain III (DIII) of the envelope (E) glycoprotein of West Nile virus (West Nile virus)
- T1 chain: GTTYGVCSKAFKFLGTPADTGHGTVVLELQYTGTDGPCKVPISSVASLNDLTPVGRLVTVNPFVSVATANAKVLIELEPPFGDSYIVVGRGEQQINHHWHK
- assayRemarks: ELISA; blocking ELISA: rDIII (2 µg, printed as 0.15 nM) pre-incubated 1 h at room temperature with a tenfold molar excess (1.5 nM) of peptide, then added to coated hBMEC proteins; negative control (no rDIII) subtracted
- runParameters: both partners purified
Positions of bridges follow the written chain, without caps; N, C: chain ends. No end group written: not given here.
measuredMetric: percent inhibition of rDIII binding to proteins of hBMECs (%)
The reply should be a number in %, with the unit left off.

SGVYKVAYDWQHGGGS (peptide of phage clone LC3; C-terminal linker; source: E. coli SHuffle T5, purified; N-terminal tag cleaved with enterokinase and removed on nickel beads; not shown: His6, N-terminal, cleaved; 28 aa tag, N-terminal, cleaved) [12-mer linear peptide LP3 (X12GGGS form of SGVYKVAYDWQH)]    39

# input GET /values?readout=percent inhibition of rDIII binding to proteins of hBMECs&item= ACLAQSHPLCGGGS (disulfide 2-10 (inferred), additional alanine at the N-terminus (ACX7CGGGS); peptide of phage clone CC16; C-terminal linker; also called C16; source: E. coli SHuffle T5, purified; N-terminal tag cleaved with enterokinase and removed on nickel beads; not shown: His6, N-terminal, cleaved; 28 aa tag, N-terminal, cleaved) [7-mer cyclic peptide CP16 (ACX7CGGGS form of CLAQSHPLC)]
# output 60

# input Consider the binder ACTYENHRTCGGGS (disulfide 2-10 (inferred), additional alanine at the N-terminus (ACX7CGGGS); peptide of phage clone CC12; C-terminal linker; source: E. coli SHuffle T5, purified; N-terminal tag cleaved with enterokinase and removed on nickel beads; not shown: His6, N-terminal, cleaved; 28 aa tag, N-terminal, cleaved) [7-mer cyclic peptide CP12 (ACX7CGGGS form of CTYENHRTC)] and give its measured percent inhibition of rDIII binding to proteins of hBMECs.
# output 61

These data points were gathered from paper PMC8505397.
